B1: TPR 5TU (parent)
chain: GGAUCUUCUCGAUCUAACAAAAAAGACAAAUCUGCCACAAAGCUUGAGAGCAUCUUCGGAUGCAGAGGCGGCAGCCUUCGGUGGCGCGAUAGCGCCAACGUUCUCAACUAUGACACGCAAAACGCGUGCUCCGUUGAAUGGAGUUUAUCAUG

Variants of: B1
experiment_notes: polymerase ribozyme fitness, log enrichment relative to wild type (log ratio); higher = more active; in vitro selection for triplet polymerase activity
Fewer inactive variants are shown than the library holds.
Measured polymerase ribozyme fitness (log ratio) accompanies every entry in the list below.

[
  {
    "residue_change": "U90C U102C A107U",
    "polymerase ribozyme fitness (log ratio)": "≤ -4.2"
  },
  {
    "residue_change": "C10A A37U G48A A64G G128U A142C",
    "polymerase ribozyme fitness (log ratio)": "≤ -4.2"
  },
  {
    "residue_change": "C5A A21C C35U G74C G128U U139G",
    "polymerase ribozyme fitness (log ratio)": "≤ -4.2"
  }
]

In the following, a different variant is considered.
[Q] Please look up its polymerase ribozyme fitness (log ratio): G48A A52G U55G G70C C96A
[A] ≤ -4.2
